- Assay system: Sphingomyelin Synthase 2 (SMS2) (Homo sapiens)
- Construct: made in house; used as homogenate
- Assay notes: In vitro inhibition of sphingomyelin synthase 2, HPLC fluorogenic quantitative detecting method (C6-NBD-ceramide to C6-NBD-SM, SMS2 high-expressed insect cell homogenate)
- Assay type: biochemical
- Run conditions: read-out: inhibition rate
Measured parameter: inhibition at 5 µM (%)

1) O=C(Nc1cccnc1)c1ccccc1OCc1ccccc1F; 53.8
2) O=C(Nc1cccnc1)c1ccccc1OCc1cccc(F)c1; 69.3
3) Cc1ccccc1COc1ccccc1C(=O)Nc1cccnc1; 71.3
4) O=C(Nc1cccnc1)c1ccccc1OCc1cccc(Cl)c1; 70.6
5) O=C(Nc1cccnc1)c1ccccc1OCc1cccc(Cl)c1F; 55.2

###

The compounds listed here are annotated with their IC50.
- Assay system: Sphingomyelin Synthase 2 (SMS2) (Homo sapiens)
- Construct: made in house; used as homogenate
- Assay notes: In vitro inhibition of sphingomyelin synthase 2, HPLC fluorogenic quantitative detecting method (C6-NBD-ceramide to C6-NBD-SM, SMS2 high-expressed insect cell homogenate)
- Assay type: biochemical
- Run conditions: five concentrations, three parallel groups; experimental value; read-out: SMS2 Median Inhibitory Concentration IC50
Measured parameter: IC50

1. O=C(Nc1cccnc1)c1ccccc1OCc1cccc([N+](=O)[O-])c1; > 50000 nM
2. O=C(Nc1cccnc1)c1ccccc1OCc1ccccc1OCCCCCl; 1400 nM
3. COc1ccc(OCc2ccccc2Cl)c(C(=O)Nc2cccnc2)c1; > 100000 nM
4. O=C(Nc1cccnc1)c1ccccc1OCc1ccccc1OCCCCCCl; 700 nM
5. CCOC(=O)COc1cccc(COc2ccccc2C(=O)Nc2cccnc2)c1; > 100000 nM

###

- Assay system: Sphingomyelin Synthase 2 (SMS2) (Homo sapiens, UniProt Q8NHU3)
- Construct: made in house; used as homogenate
- Sequence (Q8NHU3 1-365): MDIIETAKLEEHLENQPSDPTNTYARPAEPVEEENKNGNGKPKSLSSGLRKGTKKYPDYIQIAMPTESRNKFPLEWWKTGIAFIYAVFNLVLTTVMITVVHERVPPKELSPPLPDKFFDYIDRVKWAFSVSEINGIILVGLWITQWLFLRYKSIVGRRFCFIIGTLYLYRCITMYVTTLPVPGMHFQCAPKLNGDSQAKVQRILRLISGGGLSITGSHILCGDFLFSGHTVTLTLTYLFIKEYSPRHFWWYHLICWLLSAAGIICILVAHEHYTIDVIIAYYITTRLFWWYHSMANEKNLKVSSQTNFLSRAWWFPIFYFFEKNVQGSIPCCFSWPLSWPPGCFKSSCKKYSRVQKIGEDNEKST
- Assay notes: In vitro inhibition of sphingomyelin synthase 2, HPLC fluorogenic quantitative detecting method (C6-NBD-ceramide to C6-NBD-SM, SMS2 high-expressed insect cell homogenate)
- Assay type: biochemical
- Run conditions: five concentrations, three parallel groups; experimental value; read-out: SMS2 Median Inhibitory Concentration IC50
pIC50: −log10 of the molar value.
The compounds listed here are annotated with their pIC50.
Measured parameter: pIC50

1) COc1ccc(C(=O)Nc2cccnc2)c(OCc2ccccc2Cl)c1 [Scheme I-60]; < 4.30
2) Cc1cccc(COc2ccccc2C(=O)Nc2cccnc2)c1 [Scheme I-10]; < 4.60
3) CCCCCCCOc1ccccc1COc1ccccc1C(=O)Nc1cccnc1 [Scheme I-38]; 6.30
4) O=C(Nc1cccnc1)c1ccccc1OCc1cccc(C(F)(F)F)c1 [Scheme I-41]; < 4.00
5) O=C(Nc1cccnc1)c1cc([N+](=O)[O-])ccc1OCc1ccccc1Cl [Scheme I-57]; < 4.00
6) O=C(Nc1cccnc1)c1ccccc1OCc1ccccc1OCCCCCCCl [Scheme I-36]; 6.30
7) O=C(Nc1cccnc1)c1ccc(Br)cc1OCc1ccccc1Cl [Scheme I-58]; < 4.30
8) Cc1ccc(Cl)cc1COc1ccccc1C(=O)Nc1cccnc1 [Scheme I-43]; 5.96
9) CCOC(=O)c1ccc(COc2ccccc2C(=O)Nc2cccnc2)cc1 [Scheme I-19]; < 4.00
